Numbers sourced from patent US20250312469A1.

- test details: Plasma stability
- Type: in vitro ADME, human
- assay context: both sexes, plasma (sodium heparin), pH 7.4; Human Plasma
- Protocol: Both matrices were adjusted to pH 7.4 prior to initiating the experiments. A DMSO stock as first prepared for the test article. […] The vials were kept in a benchtop Thermomixer for the duration of the experiment. Aliquots (100 μL) were taken at each time point (0, 15, 30, 60, and 120 minutes) and added to 96-well plates which had been pre-filled with 300 μL of acetonitrile (ACN). Samples were stored at 4° C. until the end of the experiment. […] Analytical conditions are outlined in Appendix 1.
reported endpoint: half-life at 0.5 μM (h)

1) CCC1(O)C(=O)OCc2c1cc1n(c2=O)Cc2cc3cc4c(cc3nc2-1)OCO4 (stereo not shown); 1.53
